I'd be grateful if you could share measured EC50 for these entries.
protocol.details: Inhibition of Aurora kinase B in human HCT116 cells assessed as induction of 8N polyploidy

Cc1cc(Nc2nc(Sc3ccc(NC(=O)CN4CC[C@@H](C(=O)N5CCC(F)(F)C5)C4)cc3)nn3cccc23)n[nH]1	3 nM

Could you now look at the following compound, please?
Just so you know, measured EC50 for Cc1cc(Nc2nc(Sc3ccc(NC(=O)CN4CC[C@@H](C(=O)NC5CCCC5)C4)cc3)nn3cccc23)n[nH]1 came out at 3 nM
